Assay: Anticancer activity against human UMRC2 cells after 96 hrs by SRB assay
Assay type: functional, cell-based
Details: UMRC2, 96 h
pIC50: −log10 of the molar value.
Please note: MET applies when pIC50 is 7 or greater, and NOT MET applies otherwise.

Dear colleague, could you confirm whether "COc1nc2cc(F)ccc2nc1NC(=O)N1CCN(c2cc(C)cc(C)c2)CC1" has pIC50 at or above 7?
NOT MET

Dear colleague, could you confirm whether "COc1ccc2nc(NC(=O)N3CCN(c4cc(C)cc(C)c4)CC3)c(OC)nc2c1" has pIC50 at or above 7?
NOT MET

Dear colleague, could you confirm whether "COc1cc(OC)cc(N2CCN(C(=O)Nc3nc4cccc(C)c4nc3OC)CC2)c1" has pIC50 at or above 7?
MET

Dear colleague, could you confirm whether "COc1nc2cc(C)ccc2nc1NC(=O)N1CCN(c2cc(C)cc(C)c2)CC1" has pIC50 at or above 7?
MET

Dear colleague, could you confirm whether "COc1cc(OC)cc(N2CCN(C(=O)Nc3nc4cccc(OC)c4nc3OC)CC2)c1" has pIC50 at or above 7?
MET

Dear colleague, could you confirm whether "COc1nc2c(OC)cccc2nc1NC(=O)N1CCN(c2cc(C)cc(C)c2)CC1" has pIC50 at or above 7?
MET
